FYI, the data here is from the supplement of paper PMC3937590.

# Tested on: SKBR3
# EXPERIMENT SUMMARY: -log10 GI50 (growth inhibition 50%) (-log10(M)); higher = more potent growth inhibition
EXPERIMENTAL READOUT: -log10 GI50

// fetch -log10 GI50 given entry `O=C(O)c1ccc(-c2c[nH]c3ncc(-c4ccccc4)cc23)cc1C1CCCC1` < 4.48

// fetch -log10 GI50 given entry `CC(=O)Nc1cccc(-n2c(=O)n(C3CC3)c(=O)c3c(Nc4ccc(I)cc4F)n(C)c(=O)c(C)c32)c1` < 4.78

// fetch -log10 GI50 given entry CSCC[C@H](NC(=O)[C@H](Cc1ccccc1)NC[C@@H](NC[C@@H](N)CS)C(C)C)C(=O)O [FTase inhibitor I] < 4.48

###

Would you mind telling me the reported -log10 GI50 of each entry?
# Tested on: HCC1954
# EXPERIMENT SUMMARY: -log10 GI50 (growth inhibition 50%) (-log10(M)); higher = more potent growth inhibition

// fetch -log10 GI50 given entry `Oc1cc(-c2nc(-c3ccccc3)[nH]c2-c2ccncc2)ccc1Cl` < 4.48

// fetch -log10 GI50 given entry Nc1nc2[nH]cc(CCc3ccc(C(=O)N[C@@H](CCC(=O)O)C(=O)O)cc3)c2c(=O)[nH]1 [Pemetrexed] < 2.53

// fetch -log10 GI50 given entry `O=C(O)c1ccc(-c2c[nH]c3ncc(-c4ccccc4)cc23)cc1C1CCCC1` < 4.48

// fetch -log10 GI50 given entry O=c1cc(-c2ccccc2)oc2cc(O)c(O)c(O)c12 [Baicalein] < 3.78
